Measured values drawn from patent US10221162B2 for this set.

TARGET_UNDER_TEST: human APJ receptor (Homo sapiens (Human), UniProt P35414)
Sequence (P35414 whole entry): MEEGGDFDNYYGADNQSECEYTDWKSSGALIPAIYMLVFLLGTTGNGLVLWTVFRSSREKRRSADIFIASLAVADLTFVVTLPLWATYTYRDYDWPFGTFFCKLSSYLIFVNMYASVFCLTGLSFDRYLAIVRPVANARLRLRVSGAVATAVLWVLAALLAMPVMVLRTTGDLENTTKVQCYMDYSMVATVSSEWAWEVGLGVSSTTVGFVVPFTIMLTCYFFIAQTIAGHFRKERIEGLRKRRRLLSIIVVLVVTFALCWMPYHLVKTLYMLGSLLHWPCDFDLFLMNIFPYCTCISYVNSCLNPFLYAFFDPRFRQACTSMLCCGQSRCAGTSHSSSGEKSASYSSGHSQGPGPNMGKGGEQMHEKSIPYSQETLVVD
TEST: [35S]GTPγS binding assay (hAPJ SPA)
Type: biochemical
ASSAY_CONDITIONS: membranes from CHO cells stably expressing human APJ receptor, [35S]GTPγS; read-out: Activity hAPJ SPA EC50 IP
Entries and their measured pEC50 follow.
// scale note: pEC50 = -log10(conc_M); give the bare number

Completed entries (count: 4):
MOLECULE	pEC50
COc1cccc(-c2nnc(NS(=O)(=O)[C@@H](C)[C@H](O)c3ccccc3OC)n2-c2c(OC)cccc2OC)n1 (single isomer, unassigned) [Example 324.0]	7.85
COc1cccc(-c2nnc(NS(=O)(=O)[C@@H](C)[C@H](O)c3ccccc3OC)n2-c2c(OC)cccc2OC)n1 (single isomer, unassigned) [Example 326.0]	7.66
CCOc1cccc(OC)c1-n1c(NS(=O)(=O)[C@@H](C)[C@H](OC)c2ncc(C)cn2)nnc1-c1cccc(OC)n1 (single isomer, unassigned) [Example 665.0]	8.41
COc1cccc(-c2nnc(NS(=O)(=O)[C@@H](C)[C@H](O)c3ccccc3OC)n2-c2c(OC)cccc2OC)n1 (single isomer, unassigned) [Example 325.0]	6.77

Field pEC50 (entry COc1cccc(-c2nnc(NS(=O)(=O)[C@@H](C)[C@H](O)c3ccccc3OC)n2-c2c(OC)cccc2OC)n1 (single isomer, unassigned) [Example 327.0] ) reads 8.70
